Please respond with reported IC50 for every item in the list.
- systemName: DRB5*0101 (Homo sapiens, UniProt P01903+Q30154)
- assayProtocol: biochemical
Please give a number only; it is taken to be in µM.

Given the compound CC[C@H](C)[C@H](NC(=O)[C@@H](N)CCCCN)C(=O)N[C@H](C(=O)N[C@@H](CCC(N)=O)C(=O)N[C@@H](Cc1c[nH]c2ccccc12)C(=O)N[C@@H](CC(C)C)C(=O)N[C@@H](CCC(=O)O)C(=O)N[C@H](C(=O)N[C@@H](CCCCN)C(=O)NCC(=O)N[C@H](C(=O)N[C@@H](CCC(=O)O)C(=O)N[C@@H](CCCNC(=N)N)C(=O)N[C@@H](CC(C)C)C(=O)N[C@@H](CCCCN)C(=O)N[C@@H](CCCNC(=N)N)C(=O)N[C@@H](CCSC)C(=O)O)C(C)C)[C@@H](C)O)[C@@H](C)O , write its reported IC50.
0.0051

Given the compound CC[C@H](C)[C@H](NC(=O)[C@H](CCCCN)NC(=O)[C@H](C)NC(=O)[C@H](CCCCN)NC(=O)CNC(=O)[C@H](Cc1c[nH]c2ccccc12)NC(=O)[C@@H](N)[C@@H](C)O)C(=O)N[C@H](C(=O)N[C@H](C(=O)N[C@@H](C)C(=O)N[C@@H](CCC(=O)O)C(=O)N[C@H](C(=O)N[C@@H](CCC(N)=O)C(=O)N[C@@H](CC(N)=O)C(=O)N[C@@H](CO)C(=O)O)[C@@H](C)O)[C@@H](C)O)C(C)C , write its reported IC50.
3.93

====

Please respond with reported pIC50 for every item in the list.
- systemName: DRB1*0301 (Homo sapiens, UniProt P01903+P01911, A100K/A102G/A103R/A169T/F55Y/I96L/K41T/L162R/M171V/P40S/Q125H/Q178H/Q39Y/R42S/S66N/T106N/T262R/W38E/Y61H)
- Sequence (P01903 26-254, other chains not shown): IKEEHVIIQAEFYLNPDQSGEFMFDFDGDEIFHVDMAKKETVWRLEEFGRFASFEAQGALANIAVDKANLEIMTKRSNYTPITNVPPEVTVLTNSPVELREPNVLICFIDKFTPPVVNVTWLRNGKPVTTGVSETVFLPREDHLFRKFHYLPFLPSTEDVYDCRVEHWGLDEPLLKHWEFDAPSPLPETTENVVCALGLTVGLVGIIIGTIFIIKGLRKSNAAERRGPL
- assayProtocol: biochemical
Remember, pIC50 is on a log scale: it is -log10 of the molar concentration.

Given the molecule CC[C@H](C)[C@H](NC(=O)[C@H](CCCCN)NC(=O)CNC(=O)[C@H](CCC(=O)O)NC(=O)[C@@H](NC(=O)[C@H](CS)NC(=O)[C@H](CC(C)C)NC(=O)[C@H](CCCCN)NC(=O)[C@H](CCCNC(=N)N)NC(=O)[C@H](CC(C)C)NC(=O)[C@@H](NC(=O)[C@H](C)NC(=O)[C@H](CC(C)C)NC(=O)[C@H](CCC(N)=O)NC(=O)[C@@H](N)[C@@H](C)O)[C@@H](C)O)[C@@H](C)CC)C(=O)O [Envelope 51-65] , write its reported pIC50.
5.60

Given the molecule CC[C@H](C)[C@H](NC(=O)[C@H](CC(C)C)NC(=O)[C@H](CCCNC(=N)N)NC(=O)CNC(=O)[C@@H](N)CC(N)=O)C(=O)N[C@H](C(=O)N[C@@H](C)C(=O)N[C@@H](CC(N)=O)C(=O)N1CCC[C@H]1C(=O)N[C@H](C(=O)N[C@H](C(=O)N[C@H](C(=O)N[C@@H](CCCCN)C(=O)N[C@@H](CCCCN)C(=O)N[C@@H](CCC(=O)O)C(=O)O)[C@@H](C)O)C(C)C)C(C)C)[C@@H](C)O [Envelope 346-360] , write its reported pIC50.
6.67

Given the molecule CC(C)C[C@H](NC(=O)[C@H](CCC(=O)O)NC(=O)[C@H](CCCCN)NC(=O)[C@@H](N)CCCNC(=N)N)C(=O)N[C@@H](CC(C)C)C(=O)N[C@H](C(=O)N[C@H](C(=O)N[C@@H](Cc1ccccc1)C(=O)N[C@@H](CCCCN)C(=O)N[C@@H](CC(N)=O)C(=O)N[C@@H](C)C(=O)N[C@@H](Cc1c[nH]cn1)C(=O)N[C@@H](C)C(=O)N[C@@H](CCCCN)C(=O)N[C@@H](CCCCN)C(=O)O)[C@@H](C)O)C(C)C [Envelope 231-245] , write its reported pIC50.
5.64
